- system: SUDV GPddmuc (Sudan virus (SUDV), UniProt Q66814 33-650)
- protocol.details: ELISA
Each entry below carries its recorded pEC50.
On this scale, pEC50 is minus log10 of a concentration expressed in M (mol/L).

>  <binder>
FVM23 (antibody, V domains shown) VH: QVQLVQSGAEVKRPGESLTISCKTSGYSFTGSWISWVRQMPGKGLEWMGSIYPGDSDTTYNPSFQGHVTISADKSISTAYLQWTSLKASDTATYYCVKGSETWGQGVLVTVSS VL: SYELTQPASLSASPGASASLTCTFSGGINVAGYNILWYQQKAGSPPRYLLRYKSDSTKDQGSGVPSRFSGSKDASANTGILRISGLQSEDEADYYCAIGHSSGLIFGAGTRLTVL

>  <readout>
pEC50

>  <reported.result>
10.10

$$$$

Let's switch to this binder now.
Enquiry: What does the record list as pEC50 for FVM07 (antibody, V domains shown) VH: EVQLVQSGAEVKRPGESLTISCKTSGYSFTDSWIGWVRQMPGKGLEWMGSIYPGDSDTKYNPSFQGHVTISADKSISTTYLQWSSLKASDTATYYCVAREAYWGQGVLVTVSS VL: QPVLTQPASLSASPGASASLTCTFSGGINVAGYHIFWYQQKPGSPPRYLLRYKSDSDKGQGSGVPSRFSGSKDASANTGILRISGLQSEDEADYYCAIGHSSGVLFGGGTRLTVL ?
Return: 9.31
